Provide the recorded melting point for the entries that follow.

The cases that follow already have their melting point on record.
molecule	melting point
Cc1cccc(/C=C/C2=CCN(Cc3c[nH]c4ncccc34)CC2)c1	210 to 212 °C
O=c1c2ccc(Cl)cc2[nH]c2c(O)nn(-c3ccc(OC(F)(F)F)cc3)c(=O)c12	320 to 322 °C
CCOC(=O)C(Cc1ccc(S)cc1)(NC(C)=O)C(=O)OCC	125 to 128 °C
CCN(CC)CCCCNc1ncc2c(n1)N(CC)C(=O)N(c1cc(OC)cc(OC)c1)C2	83 to 85 °C
COc1cc(Cc2cnc(N3C(=O)c4ccccc4C3=O)nc2N)cc(OC)c1OC	221 °C

Go through the items and report each one's melting point.
1. COc1cc(Nc2c(C#N)cnc3cc(/C=C/CCN4CCCCC4)c(OC)cc23)c(Cl)cc1Cl
2. COc1cc2nc(CN(C)C)nc(Cl)c2cc1OC

Result:
1: 140 to 142 °C; 2: 78 to 80 °C

Go through the items and report each one's melting point.
1. O=C(c1cccnc1)N1CCC=N1
2. Cc1c(F)c(F)cc2c1c(=O)c(C(=O)O)cn2C1CC1
3. CONS(=O)(=O)c1cccc([N+](=O)[O-])c1
4. CC(C)=CCC1(C(F)(F)F)C(=O)NC(=O)NC1=O
5. NC(=NO)c1ccc(I)cc1
6. COc1cc2c(cc1OC)C(NC=O)C(c1ccc3c(c1)OCO3)CC2 (centres undefined)
7. CC(=O)N(C)c1nc(-c2ccccc2)c(-c2ccc(=O)n(C(C)C)n2)s1
8. CCCCNC(=O)Nc1ccccc1C(=O)NC1CCN(C(c2ccccc2)c2ccccc2)CC1

Result:
1. 81 to 82 °C
2. 294 to 298 °C
3. 111 to 113 °C
4. 150 to 153 °C
5. 155 to 161 °C
6. 150 to 190 °C
7. 165 to 167 °C
8. 204 to 206 °C

Go through the items and report each one's melting point.
1. CC(=O)NC(NC(=O)c1cc(C)cc(C)c1)C(N)=O (centres undefined)
2. O=C(CCC1CCCC1)Nc1ccc(N2CCC(NC[C@H](O)COc3cccc4[nH]c(=O)[nH]c34)CC2)cc1
3. O=C(Nc1nc2ccccc2s1)c1cn(-c2ccccc2)c2ccccc2c1=O
4. O=C(c1ccc(O)cc1)C12CC3CC(C1)CC(C(=O)c1ccc(O)cc1)(C3)C2
5. OC(c1ccc(F)cc1)C1(n2cncn2)CC1 (centres undefined)
6. Cc1cccc(C(=O)P2(=O)Oc3ccccc3-c3ccccc32)c1 (centres undefined)
7. O=C(CCc1ccc(F)cc1)c1cccnc1F
8. O=[N+]([O-])c1ccc(CCCCCCCCCCCCCCOCCCCCCCCCCCCCCc2ccc([N+](=O)[O-])cc2)cc1

Result:
["244 to 245 °C", "140 to 144 °C", "295 to 297 °C", "208 to 209 °C", "104 to 106 °C", "108 to 111 °C", "73 to 74 °C", "57 to 60 °C"]

Go through the items and report each one's melting point.
1. COc1ccc(C2c3[nH]c4ccccc4c3CCN2C(=O)C=Cc2cccc([N+](=O)[O-])c2)cc1 (centres undefined)
2. CCCCOCCOc1ccc(-c2ccc(N(C)CCOC)c(C=CC(=O)O)c2)cc1
3. ClCCOc1ccc([C@H]2c3ccc(OCc4ccccc4)cc3OC[C@H]2c2ccccc2)cc1 (racemic)
4. COc1ccc(/C(=C/C=C/C(=O)Oc2ccc([N+](=O)[O-])cc2)C(C)C)cc1
5. COc1ccccc1Nc1ncc(C(=O)O)c(=O)[nH]1

Result:
227 °C
86.4 to 87.4 °C
66 to 70.6 °C
95 to 96.5 °C
251 to 253 °C
